- Measurement target: T1, truncated cTfR1 of SEQ ID NO:123 (cynomolgus monkey, UniProt Q5RDH6 122-760 (Pongo abelii entry))
- T1 construct: also called cynomolgus TfR1
- T1 chain: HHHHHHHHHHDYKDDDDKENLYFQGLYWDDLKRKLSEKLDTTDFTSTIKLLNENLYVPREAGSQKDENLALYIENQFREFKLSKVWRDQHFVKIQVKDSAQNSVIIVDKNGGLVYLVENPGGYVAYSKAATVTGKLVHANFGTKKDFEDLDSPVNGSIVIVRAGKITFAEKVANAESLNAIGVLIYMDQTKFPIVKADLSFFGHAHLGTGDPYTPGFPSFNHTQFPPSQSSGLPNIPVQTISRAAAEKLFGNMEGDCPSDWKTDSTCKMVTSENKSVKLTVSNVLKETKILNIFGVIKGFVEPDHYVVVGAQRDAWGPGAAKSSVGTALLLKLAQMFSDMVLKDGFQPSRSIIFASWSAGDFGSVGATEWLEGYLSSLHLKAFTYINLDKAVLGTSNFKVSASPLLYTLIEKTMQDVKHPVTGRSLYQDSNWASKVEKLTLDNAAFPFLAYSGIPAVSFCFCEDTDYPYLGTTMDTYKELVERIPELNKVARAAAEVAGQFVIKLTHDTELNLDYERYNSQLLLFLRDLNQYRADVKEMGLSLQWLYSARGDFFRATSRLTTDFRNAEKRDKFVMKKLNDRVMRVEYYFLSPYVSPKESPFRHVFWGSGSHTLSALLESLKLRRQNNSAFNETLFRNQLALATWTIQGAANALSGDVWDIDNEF
- Run description: SPR, FLAG-captured TfR1, scFv injected, 1:1 fit
Lab note: anything with kon below 50000 M⁻¹ s⁻¹ is marked class 1; values at 50000 M⁻¹ s⁻¹ or higher are marked class 0.

# example entries with known answers
# Binder, Label value
measured = [
    ("h26D3 HC6 DS V11R T91A (scFv, also called h26D3 DS V11R T91A) scFv: HHHHHHGGGGSGGGGSGGGGSGGGGSDIQMTQSPSSVSASVGDRVTITCKSSQSLLYSTNQKNYLAWYQQKPGKAPKLLIYWASTRESGVPSRFSGSGSGTDFTLTISSLQPEDFATYYCQQYFIYPRTFGCGTKVEIKGGGGSGGGGSGGGGSGGGGSEVQLVQSGAERKKPGSSVKVSCKASGYIFTDYNMDWVRQAPGQCLEWIGDINPDADTTSYNEKFKGRATLTVDKSTSTAYMELSSLRSEDAAVYYCARGGYSGSSYYHPMDYWGQGTLVTVSS", "class 0"),
    ("h26D3 HC6 DS S122K (scFv, also called h26D3 DS S122K) scFv: HHHHHHGGGGSGGGGSGGGGSGGGGSDIQMTQSPSSVSASVGDRVTITCKSSQSLLYSTNQKNYLAWYQQKPGKAPKLLIYWASTRESGVPSRFSGSGSGTDFTLTISSLQPEDFATYYCQQYFIYPRTFGCGTKVEIKGGGGSGGGGSGGGGSGGGGSEVQLVQSGAEVKKPGSSVKVSCKASGYIFTDYNMDWVRQAPGQCLEWIGDINPDADTTSYNEKFKGRATLTVDKSTSTAYMELSSLRSEDTAVYYCARGGYSGSSYYHPMDYWGQGTLVTVKS", "class 0"),
    ("h26D3 HC6 DS L118S (scFv, also called h26D3 DS L118S) scFv: HHHHHHGGGGSGGGGSGGGGSGGGGSDIQMTQSPSSVSASVGDRVTITCKSSQSLLYSTNQKNYLAWYQQKPGKAPKLLIYWASTRESGVPSRFSGSGSGTDFTLTISSLQPEDFATYYCQQYFIYPRTFGCGTKVEIKGGGGSGGGGSGGGGSGGGGSEVQLVQSGAEVKKPGSSVKVSCKASGYIFTDYNMDWVRQAPGQCLEWIGDINPDADTTSYNEKFKGRATLTVDKSTSTAYMELSSLRSEDTAVYYCARGGYSGSSYYHPMDYWGQGTSVTVSS", "class 1"),
    ("h26D3 HC6 DS T91A (scFv, also called h26D3 DS T91A) scFv: HHHHHHGGGGSGGGGSGGGGSGGGGSDIQMTQSPSSVSASVGDRVTITCKSSQSLLYSTNQKNYLAWYQQKPGKAPKLLIYWASTRESGVPSRFSGSGSGTDFTLTISSLQPEDFATYYCQQYFIYPRTFGCGTKVEIKGGGGSGGGGSGGGGSGGGGSEVQLVQSGAEVKKPGSSVKVSCKASGYIFTDYNMDWVRQAPGQCLEWIGDINPDADTTSYNEKFKGRATLTVDKSTSTAYMELSSLRSEDAAVYYCARGGYSGSSYYHPMDYWGQGTLVTVSS", "class 1"),
]

Lab note: next binder to report on.
## Input Bench note: check whether h26D3-HC6_DS, VL-first (scFv) scFv: DIQMTQSPSSVSASVGDRVTITCKSSQSLLYSTNQKNYLAWYQQKPGKAPKLLIYWASTRESGVPSRFSGSGSGTDFTLTISSLQPEDFATYYCQQYFIYPRTFGCGTKVEIKGGGGSGGGGSGGGGSGGGGSEVQLVQSGAEVKKPGSSVKVSCKASGYIFTDYNMDWVRQAPGQCLEWIGDINPDADTTSYNEKFKGRATLTVDKSTSTAYMELSSLRSEDTAVYYCARGGYSGSSYYHPMDYWGQGTLVTVSS shows kon below 50000 M⁻¹ s⁻¹
## Output class 1
